species on record: Rattus norvegicus; assay: DrugMatrix - Regimen: Daily Repeat; format: toxicity, organism-based, Sprague-Dawley; design: regimen Daily Repeat, gender Male, age 6-8 weeks; conditions: in vivo, po, 1500 mg/kg, 120 h, tissue Blood, route oral GAVAGE, dose level High, time 5 day, vehicle .5 % CMC
Provide the recorded ABSOLUTE LYMPHOCYTE for the entries that follow.
All answers are understood in CELLS/uL, so give the number only.

Enquiry: Would you mind telling me what ABSOLUTE LYMPHOCYTE value was observed for O=C(O)CCc1nc(-c2ccccc2)c(-c2ccccc2)o1 [OXAPROZIN] ?
Return: 19502.67

Enquiry: Look at this compound and give its reported ABSOLUTE LYMPHOCYTE. CC[C@H]1OC(=O)[C@H](C)[C@@H](O[C@H]2C[C@@](C)(OC)[C@@H](O)[C@H](C)O2)[C@H](C)[C@@H](O[C@@H]2O[C@H](C)C[C@H](N(C)C)[C@H]2O)[C@](C)(O)C[C@@H](C)C(=O)[C@H](C)[C@@H](O)[C@]1(C)O [ERYTHROMYCIN]
Return: 14587.33

Enquiry: Entry COc1cc(/C=C/C(=O)O)ccc1O [FERULATE] : reported ABSOLUTE LYMPHOCYTE = ?
Return: 18780.67

Enquiry: Given the entry Cc1ccc(S(=O)(=O)NC(=O)NN2CCCCCC2)cc1 [TOLAZAMIDE] , report its measured ABSOLUTE LYMPHOCYTE.
Return: 13177.33

* * *

organism: Rattus norvegicus; test: DrugMatrix - Regimen: Daily Repeat; assay type: toxicity, organism-based, Sprague-Dawley; design: regimen Daily Repeat, gender Male, age 6-8 weeks; settings: in vivo, po, 0 mg/kg, 72 h, tissue Plasma, route oral GAVAGE, dose level Control, time 3 day, vehicle .5 % CMC
Outcome label depends on CREATINE PHOSPHOKINASE relative to 200 u/L: at/above gives true, below gives false.

Enquiry: Would you say COc1cc(NC(C)CCCN)c2ncccc2c1 (configuration not stated) [PRIMAQUINE] shows CREATINE PHOSPHOKINASE at minimum 200 u/L?
Return: false

Enquiry: State whether the measured CREATINE PHOSPHOKINASE reaches 200 u/L, counting equality as reaching it, for O=C(O)CCc1nc(-c2ccccc2)c(-c2ccccc2)o1 [OXAPROZIN]
Return: true

Enquiry: State whether the measured CREATINE PHOSPHOKINASE reaches 200 u/L, counting equality as reaching it, for CCOc1cc(N)c(Cl)cc1C(=O)NCC1CN(Cc2ccc(F)cc2)CCO1 (configuration not stated) [MOSAPRIDE]
Return: true

Enquiry: Does the reported CREATINE PHOSPHOKINASE for COc1ccc(Cl)cc1C(=O)NCCc1ccc(S(=O)(=O)NC(=O)NC2CCCCC2)cc1 [GLYBURIDE] fall at or above the 200 u/L mark?
Return: false

Enquiry: Decide: is the reported value of CREATINE PHOSPHOKINASE for COc1cc(/C=C/C(=O)O)ccc1O [FERULATE] equal to or greater than 200 u/L?
Return: true

Enquiry: Check this molecule for CREATINE PHOSPHOKINASE at or above 200 u/L: Cl.NC[C@H]1CC[C@H](C(=O)Oc2ccc(CCC(=O)O)cc2)CC1 [CETRAXATE HYDROCHLORIDE]
Return: true

Enquiry: Check the entry CC(C)NCC(O)COc1ccc(CC(N)=O)cc1 (configuration not stated) [ATENOLOL] : does CREATINE PHOSPHOKINASE equal or exceed 200 u/L?
Return: false

Enquiry: Check if CREATINE PHOSPHOKINASE >= 200 u/L (inclusive). Item: O=C1c2ccccc2C(=O)C1c1ccccc1 [PHENINDIONE]
Return: false

Enquiry: Say whether CC(=O)Nc1ccc2c(c1)Cc1ccccc1-2 [2-ACETYLAMINOFLUORENE] shows CREATINE PHOSPHOKINASE of 200 u/L or more.
Return: true

Enquiry: Textbook exercise: given the entry CCN1CCN(c2cc3c(cc2F)c(=O)c(C(=O)O)cn3C2CC2)CC1 [ENROFLOXACIN] , state whether its CREATINE PHOSPHOKINASE is greater than or equal to 200 u/L.
Return: false

Enquiry: Please tell me: is the molecule CCN1CCCC1CNC(=O)c1cc(S(N)(=O)=O)ccc1OC (configuration not stated) [SULPIRIDE] at or over 200 u/L in terms of CREATINE PHOSPHOKINASE?
Return: true

Enquiry: Given the entry CN(C)CCC=C1c2ccccc2COc2ccccc21 [DOXEPIN] , answer whether its CREATINE PHOSPHOKINASE meets or surpasses 200 u/L.
Return: false

* * *

organism: Rattus norvegicus; assay: DrugMatrix - Regimen: Daily Repeat; assay type: toxicity, organism-based, Sprague-Dawley; design: regimen Daily Repeat, gender Male, age 6-8 weeks; conditions: in vivo, iv, 0 mg/kg, 72 h, tissue Plasma, dose level Control, time 3 day, vehicle 100 % SALINE
Kindly state ALANINE AMINOTRANSFERASE for each of the entries shown.
# output: bare number, implied unit u/L

Enquiry: What value of ALANINE AMINOTRANSFERASE has been reported for the following compound? CO[C@@]12[C@H](COC(N)=O)C3=C(C(=O)C(C)=C(N)C3=O)N1C[C@@H]1N[C@@H]12
Return: 53.17

Enquiry: Any idea what ALANINE AMINOTRANSFERASE was measured for CC(=O)[C@]1(O)Cc2c(O)c3c(c(O)c2[C@@H](O[C@H]2C[C@H](N)[C@H](O)[C@H](C)O2)C1)C(=O)c1ccccc1C3=O ?
Return: 39.67

Enquiry: Data request, read-out ALANINE AMINOTRANSFERASE, for COC(=O)C[C@](O)(CCC(C)(C)O)C(=O)O[C@@H]1C(OC)=C[C@]23CCCN2CCc2cc4c(cc2[C@H]13)OCO4
Return: 49.33

Enquiry: If you can, please state the reported ALANINE AMINOTRANSFERASE value of Cc1c(N)nc([C@H](CC(N)=O)NC[C@H](N)C(N)=O)nc1C(=O)N[C@H](C(=O)N[C@H](C)[C@@H](O)[C@H](C)C(=O)N[C@H](C(=O)NCCc1nc(-c2nc(C(=O)NCCC[S+](C)C)cs2)cs1)[C@@H](C)O)[C@@H](O[C@@H]1O[C@@H](CO)[C@@H](O)[C@H](O)[C@@H]1O[C@H]1O[C@H](CO)[C@@H](O)[C@H](OC(N)=O)[C@@H]1O)c1c[nH]cn1.[Br-] .
Return: 46.17

* * *

For each of the molecules below, state its LEUKOCYTE COUNT.
organism: Rattus norvegicus; assay: DrugMatrix - Regimen: Daily Repeat; type: toxicity, organism-based, Sprague-Dawley; parameters: regimen Daily Repeat, gender Male, age 6-8 weeks; settings: in vivo, po, 0 mg/kg, 72 h, tissue Blood, route oral GAVAGE, dose level Control, time 3 day, vehicle 100 % SALINE
Lab book: enter the figure in x10E3/uL, no units written.

Enquiry: Query (molecule): Cc1ccnc2c1NC(=O)c1cccnc1N2C1CC1 ; field requested: LEUKOCYTE COUNT
Return: 13.37

Enquiry: Which LEUKOCYTE COUNT value belongs to CC(CN1c2ccccc2Sc2ccccc21)N(C)C (stereo not given) ?
Return: 18.63

Enquiry: Requested field: LEUKOCYTE COUNT. Item: CCN(CC)N=O
Return: 9.7

Enquiry: Looking for the measured LEUKOCYTE COUNT of O=[As][O-].[Na+] [SODIUM ARSENITE] , can you help?
Return: 13.92

Enquiry: For the molecule shown here, CCO , give the reported LEUKOCYTE COUNT.
Return: 13.92

* * *

organism: Rattus norvegicus; assay: DrugMatrix - Regimen: Daily Repeat; type: toxicity, organism-based, Sprague-Dawley; set-up: regimen Daily Repeat, gender Male, age 6-8 weeks; settings: in vivo, po, 0 mg/kg, 120 h, tissue Plasma, route oral GAVAGE, dose level Control, time 5 day, […]
Measured Metric: TOTAL PROTEIN (G/DL)
Write the value in G/DL as a bare number.

Enquiry: # input compound: COC(=O)Nc1nc2ccc(C(=O)c3ccccc3)cc2[nH]1 ; wanted: its TOTAL PROTEIN
Return: 5.9

Enquiry: Which TOTAL PROTEIN value belongs to O=C(O)COC(=O)Cc1ccccc1Nc1c(Cl)cccc1Cl ?
Return: 5.9

Enquiry: Reported TOTAL PROTEIN, compound O=C(Nc1ccc(Cl)c(Cl)c1)c1cc(Cl)cc(Cl)c1O [3,3',4',5-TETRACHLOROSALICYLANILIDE] : ____
Return: 5.63

Enquiry: Any idea what TOTAL PROTEIN was measured for COc1ccccc1OCCNCC(O)COc1cccc2[nH]c3ccccc3c12 (centres undefined) ?
Return: 5.9

Origin of values: ChEMBL document CHEMBL3885881
